The reported numbers originate from paper PMC10184313.

biological target: porcine PDHc E1 (Sus scrofa); assay: PDHc E1 inhibitory activity assay (DCPIP reduction); format: biochemical; settings: [Compound] = 250 μM, [ThDP] = 50 μM
Sequence (P29804 30-389): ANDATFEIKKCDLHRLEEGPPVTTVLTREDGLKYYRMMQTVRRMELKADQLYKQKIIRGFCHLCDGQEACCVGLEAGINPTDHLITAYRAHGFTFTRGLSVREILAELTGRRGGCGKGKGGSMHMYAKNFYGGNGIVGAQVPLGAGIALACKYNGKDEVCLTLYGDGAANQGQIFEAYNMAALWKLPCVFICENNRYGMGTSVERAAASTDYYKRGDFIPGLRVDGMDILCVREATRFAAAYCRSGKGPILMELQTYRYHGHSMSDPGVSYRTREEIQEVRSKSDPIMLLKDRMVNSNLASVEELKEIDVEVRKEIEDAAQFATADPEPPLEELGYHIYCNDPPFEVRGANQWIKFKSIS
Use YES when the recorded Inhibition (%) PDHc E1 is no lower than 60%; use NO when it is lower.

[[record]]
molecule = "Cc1ncc(Cn2cc(CCCCn3cc(-c4ccccc4)nn3)nn2)c(N)n1 [Compound 15c]"
class_label = "YES"

[[record]]
molecule = "COc1ccc(-c2cn(CCCCc3cn(Cc4cnc(C)nc4N)nn3)nn2)cc1 [Compound 17c]"
class_label = "YES"

[[record]]
molecule = "Cc1ncc(Cn2cc(CCCC(=O)NO)nn2)c(N)n1 [Compound 24b]"
class_label = "YES"

[[record]]
molecule = "Cc1ncc(C[n+]2csc(CCO[P@@](=O)(O)OP(=O)(O)O)c2C)c(O)n1 [OxThDP 7b, oxythiamine diphosphate, reference compound]"
class_label = "YES"

[[record]]
molecule = "Cc1ncc(Cn2cc(CCCCn3cc(-c4ccc(F)cc4)nn3)nn2)c(N)n1 [Compound 16c]"
class_label = "YES"

[[record]]
molecule = "Cc1ncc(Cn2cc(CCCCC(=O)NO)nn2)c(N)n1 [Compound 24c]"
class_label = "YES"

[[record]]
molecule = "Cc1ncc(Cn2cc(CCCn3cc(-c4ccccc4)nn3)nn2)c(N)n1 [Compound 15b]"
class_label = "YES"

[[record]]
molecule = "Cc1ncc(Cn2cc(CCn3cc(-c4ccccc4)nn3)nn2)c(N)n1 [Compound 15a]"
class_label = "NO"

[[record]]
molecule = "COc1ccccc1C(=O)NCCc1cn(Cc2cnc(C)nc2N)nn1 [Compound 22a]"
class_label = "YES"

[[record]]
molecule = "COc1ccccc1C(=O)NCCCc1cn(Cc2cnc(C)nc2N)nn1 [Compound 22b]"
class_label = "NO"

[[record]]
molecule = "Cc1ncc(Cn2cc(CCn3cc(-c4ccc(F)cc4)nn3)nn2)c(N)n1 [Compound 16a]"
class_label = "NO"

[[record]]
molecule = "Cc1ncc(Cn2cc(CCCCO)nn2)c(N)n1 [Compound 9c]"
class_label = "NO"

[[record]]
molecule = "Cc1ncc(Cn2cc(CCNS(=O)(=O)C(F)(F)F)nn2)c(N)n1 [Compound 18a]"
class_label = "NO"

